- System: SK-MEL-5 melanoma
- method description: NCI tumour cell line growth inhibition, 48 h
Please go through the items and note down their TGI.
Answers are plain numbers, in µM.

INSERT INTO assay_data (compound, endpoint_result) VALUES
  ('COc1ccc(NC2Oc3cc4c(cc3C(c3cc(OC)c(O)c(OC)c3)C2C)OCO4)cc1 (stereo not given)', 4.34),
  ('CCOC(=O)C(Cc1ccccc1)(Cc1ccc(O)cn1)NC(=O)c1ccccc1 (stereo not given)', 36.6),
  ('C=CC(=O)N1CCCC(n2nc(-c3ccc(Oc4ccccc4)cc3)c3c(N)ncnc32)C1 (stereo not given)', 19.3),
  ('CCOC(=O)[C@@H](C)C[C@H](Cc1ccccc1)NC(=O)c1csc([C@@H](C[C@H](C(C)C)N(C)C(=O)[C@@H](NC(=O)[C@H]2C[C@H](O[Si](C)(C)C(C)(C)C)CCN2C)C(C)C)OC(C)=O)n1', 1.39),
  ('COc1cc([C@H](C)c2ccc3ccccc3c2)cc(OC)c1OC', 11.1);

Parameter requested: TGI. Apply to each item below.
1. O=C(Nc1ccccc1)c1ccc(Cl)c([N+](=O)[O-])c1
2. O=C(Nc1ccccc1C(F)(F)F)c1cccc(NC2=C(Cl)C(=O)N(Cc3ccccc3)C2=O)c1
3. O=[N+]([O-])c1ccc2[nH]cc(-c3c4ccsc4cc4[nH]c5ccc([N+](=O)[O-])cc5c34)c2c1
4. Cc1ccc(S(=O)(=O)N2CCN(CCN(C)CCN3CCN(S(=O)(=O)c4ccc(C)cc4)CC3)CC2)cc1
5. C=CCCCCCCCCCCCC1CCC(CC)N1 (stereo not given)
6. CCN(CC)CCNc1c(OC)cc(C)c2sc3ccccc3c(=O)c12

Reply |
1. 20
2. 3.04
3. 2.01
4. 32.3
5. 25.5
6. 3.4
